# Tested on: Escherichia coli TOP10;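 note: peptides expressed intracellularly from a pBAD plasmid library in pooled LB shake-flask culture, induced with 0.3% L-arabinose, DNA abundance read by NGS, three biological replicates, DESeq2 with apeglm shrinkage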
# experimentDescription: shrunken log2 fold change of peptide-encoding DNA abundance (4.5 h post-induction vs induction); higher = less antimicrobial activity (less host growth inhibition)
# measurementConditions: time post-induction: 4.5 h; library: site-saturation at positions 5, 18, 19, 20
For each entry below, report its shrunken log2 fold change value.
One number for each entry.

Here is how some sequences turned out for shrunken log2 fold change.
[
  {
    "seqString": "RRIRARPPRLPRPRPRPPKPPRP",
    "shrunken log2 fold change": 0.689
  },
  {
    "seqString": "RRIRLRPPRLPRPRPRPYFPPRP",
    "shrunken log2 fold change": -0.802
  },
  {
    "seqString": "RRIRPRPPRLPRPRPRPSYEPRP",
    "shrunken log2 fold change": -0.178
  },
  {
    "seqString": "RRIRRRPPRLPRPRPRPQIKPRP",
    "shrunken log2 fold change": -0.155
  },
  {
    "seqString": "RRIRGRPPRLPRPRPRPDMYPRP",
    "shrunken log2 fold change": 0.0675
  },
  {
    "seqString": "RRIRVRPPRLPRPRPRPLKTPRP",
    "shrunken log2 fold change": -0.0304
  },
  {
    "seqString": "RRIRSRPPRLPRPRPRPVALPRP",
    "shrunken log2 fold change": -0.0772
  },
  {
    "seqString": "RRIRFRPPRLPRPRPRPVHLPRP",
    "shrunken log2 fold change": -0.0117
  }
]

Could you tell me shrunken log2 fold change for each of these sequences? They are listed below.
1. RRIRQRPPRLPRPRPRPIFTPRP
2. RRIRHRPPRLPRPRPRPHAEPRP
3. RRIRCRPPRLPRPRPRPIAYPRP
4. RRIRWRPPRLPRPRPRPLDKPRP

Result:
-0.123
-0.0216
-0.113
0.352
